Target: 229E Mpro (Human coronavirus 229E (HCoV-229E))
Sequence (P0C6X1 2966-3267 limits assumed): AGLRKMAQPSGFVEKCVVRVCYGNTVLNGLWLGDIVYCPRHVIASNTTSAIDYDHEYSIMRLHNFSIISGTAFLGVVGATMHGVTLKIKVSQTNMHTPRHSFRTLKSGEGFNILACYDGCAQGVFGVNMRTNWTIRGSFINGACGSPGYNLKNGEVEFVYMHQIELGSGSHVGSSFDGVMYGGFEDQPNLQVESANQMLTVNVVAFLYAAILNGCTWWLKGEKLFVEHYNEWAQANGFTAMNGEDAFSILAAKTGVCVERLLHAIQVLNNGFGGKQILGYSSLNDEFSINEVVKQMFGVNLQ
Test: 229E Mpro activity
Assay type: biochemical
Conditions: read-out: 229E Mpro EC50
test-readout: EC50

Check out these entries, answers already filled in.
compound="COc1cccc2[nH]c(C(=O)N[C@@H](CC(C)C)C(=O)N[C@@H](C[C@@H]3CCNC3=O)C3OC(=O)N(c4ccccc4)C3=N)cc12 (stereo partly drawn)" study_system="229E Mpro (Human coronavirus 229E (HCoV-229E))" measured="10 to 30 µM"
compound="COc1cccc2[nH]c(C(=O)N3CC4(CCCC4)C[C@H]3C(=O)N[C@H](C#N)C[C@@H]3CCNC3=O)cc12 (single isomer, unassigned) [401 (Isomer 2)]" study_system="229E Mpro (Human coronavirus 229E (HCoV-229E))" measured="2 to 10 µM"
compound="COc1cccc2[nH]c(C(=O)N3CC4(CCCCC4)CC3C(=O)N[C@H](C#N)CC3CCC(C)(C)NC3=O)cc12 (single isomer, unassigned) [1111 (Isomer 2)]" study_system="229E Mpro (Human coronavirus 229E (HCoV-229E))" measured="> 30 µM"
compound="N#C[C@H](C[C@@H]1CCCNC1=O)NC(=O)C1CC2(CCC(F)(F)CC2)CN1C(=O)c1cc2cccc(Cl)c2[nH]1 (single isomer, unassigned) [805 (Isomer 1)]" study_system="229E Mpro (Human coronavirus 229E (HCoV-229E))" measured="> 30 µM"

// query Dear colleague, I am looking for the recorded EC50 of the following compound: COc1ccc(Cl)c2[nH]c(C(=O)N3CC4(CCCCC4)CC3C(=O)NC(C#N)C[C@@H]3CCCNC3=O)cc12 (single isomer, unassigned) [902 (Isomer 2)]
// result 10 to 30 µM

// query Entry under review: "COc1cccc2[nH]c(C(=O)N3C[C@H](C(F)(F)F)C[C@H]3C(=O)N[C@H](C#N)C[C@@H]3CCNC3=O)cc12" . Reported EC50?
// result < 2 µM
